- experimental_protocol: Biodistribution study in LNCaP tumor-bearing mice (Th227 counted in organs)
- Type: in vivo, SCID mice
- particulars: 4 hr; 1500 kBq/kg
- Source text: SCID mice were randomly assigned to experimental groups, ten animals per group (efficacy) or n=3-5 per time point of biodistribution study. […] At the predetermined time point, n=3 animals were sacrificed, the organs removed, weight and measured in a Germanium detector to count the Th227 in the sample.
Provide the reported Th-227 in Tumor of each item.
Write the number in % ID Th-227/g organ without appending the unit.

Which measured Th-227 in Tumor value corresponds to O=C([O-])CN1CCN(CC(=O)[O-])CCN(CC(=O)NCC2CCC(C(=O)NC(Cc3ccc4ccccc4c3)C(=O)NCCCCC(NC(=O)NC(CCC(=O)O)C(=O)O)C(=O)O)CC2)CCN(CC(=O)[O-])CC1.[227Th+4] (stereo not shown) [Example 1-B-227Th] ?
13.09

Input O=C([O-])CN1CCN(CC(=O)[O-])CCN(CC(=O)NCC2CCC(C(=O)NC(Cc3ccc4ccccc4c3)C(=O)NCCCCC(NC(=O)NC(CCC(=O)O)C(=O)O)C(=O)O)CC2)CCN(CC(=O)[O-])CC1.[227Th+4] [Example 1-B-D-227Th]
1.59

Input Cc1cc(C(=O)NCCN(CCCN(CCNC(=O)c2cc(C)n(CC(=O)O)c(=O)c2[O-])CCNC(=O)c2cc(C)n(CC(=O)NCC3CCC(C(=O)NC(Cc4cnc5ccccc5c4)C(=O)NCCCCC(NC(=O)NC(CCC(=O)O)C(=O)O)C(=O)O)CC3)c(=O)c2[O-])CCNC(=O)c2cc(C)n(CC(=O)NCC3CCC(C(=O)NC(Cc4cnc5ccccc5c4)C(=O)NCCCCC(NC(=O)NC(CCC(=O)O)C(=O)O)C(=O)O)CC3)c(=O)c2[O-])c([O-])c(=O)n1CC(=O)O.[227Th+4] (stereo not shown) [Example 22-C dimer-227Th]
2.18

Input O=C([O-])CN1CCN(CC(=O)[O-])CCN(CC(=O)NCc2ccc(C(=O)N[C@@H](Cc3ccc4ccccc4n3)C(=O)NCCCC[C@H](NC(=O)N[C@@H](CCC(=O)O)C(=O)O)C(=O)O)nc2)CCN(CC(=O)[O-])CC1.[227Th+4] [Example 34-B-227Th]
7.00
